test: label from the status in PepcDB records

{"columns": ["RESIDUE CODES", "protein production"],
 "data": [
  ["MLRVVEVCWRESHMKVLAINSSPRMDKGNTALILNPFLEGMKEAGAEVELFYTKKLKISPCTGEFNCWLKTPGKCYQNDDMNILYPRIDAADVIVFATPVYVDGVTGQMKNFIDRMLPRVEPFVELRDGHCRHPVRGGPKALKFVLVSNCGFWEMDNFDSLLVFMKAFCKNASTEFAGALLRPHGEALSSMLEMGAPIDDVFEAAREVGRQLVKEGKMSQETLDIVSRELLPKEMYIQIANQTFRQCLESLDRLEHHHHHH", "failed"],
  ["MYREFYGLTEKPFSKTPDPRYLFLSRGHREALARLQYAVEERELALLTGDIGCGKTTISRALMDAVGNDGCFCFIVNPRLSAVEFLRTVARSLGIAEPAAAKDELLRQLTEAVYRLEGEKRCPVIIIDEAQLIPDQEVFDEIRLLTNFQLDDRNLMSVILMGQPELRQILSEPAHEALRQRIAMHYHLQPLSLEETLEYVDFRVEVAGGPQGLFSPDAIRRIYELSGGVPRKINILATNALLVGFGKDSAWIDASLVEELRDEASLYLEHHHHHH", "failed"]
]}
